Overview of reported pIC50 across a group of compounds:
Target: human full-length MKNK1 (Homo sapiens, UniProt Q9BUB5, T385D)
Construct: GST (N); purchased Carna Biosciences 02-145; host or cells: insect cells (baculovirus expression system)
Sequence (Q9BUB5 1-424 isoform Q9BUB5-2 T344D): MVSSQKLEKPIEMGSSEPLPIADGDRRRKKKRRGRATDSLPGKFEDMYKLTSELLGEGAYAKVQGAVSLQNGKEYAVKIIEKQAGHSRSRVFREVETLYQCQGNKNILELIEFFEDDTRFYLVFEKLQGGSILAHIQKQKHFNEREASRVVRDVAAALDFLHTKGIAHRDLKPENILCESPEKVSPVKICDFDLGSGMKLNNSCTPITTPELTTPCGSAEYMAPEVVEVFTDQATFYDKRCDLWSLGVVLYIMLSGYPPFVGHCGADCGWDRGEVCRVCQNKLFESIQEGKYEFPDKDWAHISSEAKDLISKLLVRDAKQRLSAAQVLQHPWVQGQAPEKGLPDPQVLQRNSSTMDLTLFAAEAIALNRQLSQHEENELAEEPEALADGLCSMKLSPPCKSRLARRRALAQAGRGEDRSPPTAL
Assay: MKNK1 kinase high ATP assay (TR-FRET)
Type: biochemical
Conditions: TR-FRET, 2 mM ATP (high ATP), 15 min preincubation with enzyme, 30 min reaction at 22° C.; read-out: MKNK1 IC50
pIC50: −log10 of the molar value.
Property Name: pIC50

{"Compound": "Cc1cc(Nc2ncnc3sc4c(c23)CC[C@H](C(=O)N2C[C@H]3C[C@@H]2CO3)C4)c(=O)n2c1C(=O)NC21CSC1 [Example 51]", "Property Name": "pIC50", "Reported Measurement": 9.40}
{"Compound": "O=C1NC2(CCCCC2)n2c1c(Cl)cc(Nc1ncnc3sc4c(c13)CC[C@H](C(=O)N1CCC1)C4)c2=O [Example 76]", "Property Name": "pIC50", "Reported Measurement": 9.05}
{"Compound": "CN(C)C(=O)[C@H]1CCc2c(sc3ncnc(Nc4cc(Cl)c5n(c4=O)C(C)(C)NC5=O)c23)C1 [Example 111]", "Property Name": "pIC50", "Reported Measurement": 9.52}
{"Compound": "Cc1cc(Nc2ncnc3sc4c(c23)CC[C@H](C(=O)O)C4)c(=O)n2c1C(=O)NC21CCC1 [Example 16]", "Property Name": "pIC50", "Reported Measurement": 8.41}
{"Compound": "Cc1cc(Nc2ncnc3sc4c(c23)CC[C@H](C(=O)N2CCN(C)[C@H](C)C2)C4)c(=O)n2c1C(=O)NC21CS(=O)(=O)C1 [Example 71]", "Property Name": "pIC50", "Reported Measurement": 9.10}
{"Compound": "Cc1cc(Nc2ncnc3sc4c(c23)CC[C@H](C(=O)O)C4)c(=O)n2c1C(=O)NC21CCC(F)(F)CC1 [Example 42]", "Property Name": "pIC50", "Reported Measurement": 7.61}
{"Compound": "Cc1cc(Nc2ncnc3sc4c(c23)CC[C@H](C(=O)N2CCC2)C4)c(=O)n2c1C(=O)NC21CSC1 [Example 46]", "Property Name": "pIC50", "Reported Measurement": 9.22}
{"Compound": "O=C1NC2(CCCCC2)n2c1c(Cl)cc(Nc1ncnc3sc4c(c13)CC[C@H](C(=O)N1C[C@H]3C[C@@H]1CO3)C4)c2=O [Example 81]", "Property Name": "pIC50", "Reported Measurement": 9.52}
{"Compound": "Cc1cc(Nc2ncnc3sc4c(c23)CC[C@H](C(=O)N2CC(N)C2)C4)c(=O)n2c1C(=O)NC21CCCCC1 [Example 11]", "Property Name": "pIC50", "Reported Measurement": 9.30}
{"Compound": "Cc1cc(Nc2ncnc3sc4c(c23)CC[C@H](C(=O)N2CC[C@H](N(C)C)C2)C4)c(=O)n2c1C(=O)N[C@]21CC[C@@](O)(C(F)(F)F)CC1 [Example 63]", "Property Name": "pIC50", "Reported Measurement": 8.80}
{"Compound": "Cc1cc(Nc2ncnc3sc4c(c23)CC[C@H](C(=O)N2CC(C#N)C2)C4)c(=O)n2c1C(=O)NC21CSC1 [Example 47]", "Property Name": "pIC50", "Reported Measurement": 9.10}
{"Compound": "Cc1cc(Nc2ncnc3sc4c(c23)CC[C@H](C(=O)N2CCC2)C4)c(=O)n2c1C(=O)NC21CCC1 [Example 21]", "Property Name": "pIC50", "Reported Measurement": 9.22}
{"Compound": "Cc1cc(Nc2ncnc3sc4c(c23)CC[C@H](C(=O)N(C)C)C4)c(=O)n2c1C(=O)N[C@]21CC[C@@](O)(C(F)(F)F)CC1 [Example 60]", "Property Name": "pIC50", "Reported Measurement": 8.02}
{"Compound": "Cc1cc(Nc2ncnc3sc4c(c23)CC[C@H](C(=O)N2CC(C#N)C2)C4)c(=O)n2c1C(=O)NC21CS(=O)(=O)C1 [Example 68]", "Property Name": "pIC50", "Reported Measurement": 8.60}
{"Compound": "CC1(C)NC(=O)c2c(Cl)cc(Nc3ncnc4sc5c(c34)CC[C@H](C(=O)N3C[C@H]4C[C@@H]3CO4)C5)c(=O)n21 [Example 116]", "Property Name": "pIC50", "Reported Measurement": 9.52}
{"Compound": "Cc1cc(Nc2ncnc3sc4c(c23)CC[C@H](C(=O)N2CCC2)C4)c(=O)n2c1C(=O)NC21CCCCC1 [Example 3]", "Property Name": "pIC50", "Reported Measurement": 9.52}
{"Compound": "C[C@@H]1COCCN1C(=O)[C@H]1CCc2c(sc3ncnc(Nc4cc(Cl)c5n(c4=O)C4(CCCC4)NC5=O)c23)C1 [Example 90]", "Property Name": "pIC50", "Reported Measurement": 9.52}
{"Compound": "Cc1cc(Nc2ncnc3sc4c(c23)CC[C@H](C(=O)N2CC[C@H](N(C)C)C2)C4)c(=O)n2c1C(=O)NC21CCC(F)(F)CC1 [Example 56]", "Property Name": "pIC50", "Reported Measurement": 8.70}
{"Compound": "N#CC1CN(C(=O)[C@H]2CCc3c(sc4ncnc(Nc5cc(Cl)c6n(c5=O)C5(CSC5)NC6=O)c34)C2)C1 [Example 104]", "Property Name": "pIC50", "Reported Measurement": 9.70}
{"Compound": "Cc1cc(Nc2ncnc3sc4c(c23)CC[C@H](C(=O)N2CC(N(C)C)C2)C4)c(=O)n2c1C(=O)NC21CCCCC1 [Example 19]", "Property Name": "pIC50", "Reported Measurement": 9.05}
{"Compound": "Cc1cc(Nc2ncnc3sc4c(c23)CC[C@H](C(=O)N2C[C@H]3C[C@@H]2CO3)C4)c(=O)n2c1C(=O)NC21CCC1 [Example 26]", "Property Name": "pIC50", "Reported Measurement": 9.15}
{"Compound": "Cc1cc(Nc2ncnc3sc4c(c23)CC[C@H](C(N)=O)C4)c(=O)n2c1C(=O)NC21CCCCC1 [Example 17]", "Property Name": "pIC50", "Reported Measurement": 9.30}
{"Compound": "C[C@@H]1COCCN1C(=O)[C@H]1CCc2c(sc3ncnc(Nc4cc(Cl)c5n(c4=O)C4(CCC4)NC5=O)c23)C1 [Example 99]", "Property Name": "pIC50", "Reported Measurement": 10.00}
{"Compound": "CN(C)[C@H]1CCN(C(=O)[C@H]2CCc3c(sc4ncnc(Nc5cc(Cl)c6n(c5=O)C5(CCCCC5)NC6=O)c34)C2)C1 [Example 78]", "Property Name": "pIC50", "Reported Measurement": 8.32}
{"Compound": "Cc1cc(Nc2ncnc3sc4c(c23)CC[C@H](C(=O)N2CCN(C)[C@@H](C)C2)C4)c(=O)n2c1C(=O)NC21CCCCC1 [Example 14]", "Property Name": "pIC50", "Reported Measurement": 9.10}
{"Compound": "Cc1cc(Nc2ncnc3sc4c(c23)CC[C@H](C(=O)N2CC(C#N)C2)C4)c(=O)n2c1C(=O)NC2(C)C [Example 29]", "Property Name": "pIC50", "Reported Measurement": 9.00}
